Origin of measurements: paper PMC9966414

Target: Kir6.1/SUR2B (Homo sapiens, UniProt O60706+Q15842)
Construct: full-length human subunits co-expressed stably in HEK293 cells; GenScript vectors; four Kir6.1 plus four SUR2B
Sequence (Q15842 whole entry): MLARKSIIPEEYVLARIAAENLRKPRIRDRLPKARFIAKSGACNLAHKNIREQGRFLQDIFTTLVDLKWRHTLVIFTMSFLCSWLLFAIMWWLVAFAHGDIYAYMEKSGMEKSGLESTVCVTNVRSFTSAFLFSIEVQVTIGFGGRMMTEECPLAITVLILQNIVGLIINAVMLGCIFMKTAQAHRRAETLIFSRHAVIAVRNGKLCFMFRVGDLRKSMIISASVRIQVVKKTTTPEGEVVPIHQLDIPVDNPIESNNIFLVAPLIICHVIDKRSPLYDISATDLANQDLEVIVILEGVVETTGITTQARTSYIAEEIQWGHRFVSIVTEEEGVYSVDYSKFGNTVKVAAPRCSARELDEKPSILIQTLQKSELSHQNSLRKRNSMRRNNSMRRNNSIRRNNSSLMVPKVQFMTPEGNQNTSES
Sequence (O60706 1-1549 isoform O60706-2): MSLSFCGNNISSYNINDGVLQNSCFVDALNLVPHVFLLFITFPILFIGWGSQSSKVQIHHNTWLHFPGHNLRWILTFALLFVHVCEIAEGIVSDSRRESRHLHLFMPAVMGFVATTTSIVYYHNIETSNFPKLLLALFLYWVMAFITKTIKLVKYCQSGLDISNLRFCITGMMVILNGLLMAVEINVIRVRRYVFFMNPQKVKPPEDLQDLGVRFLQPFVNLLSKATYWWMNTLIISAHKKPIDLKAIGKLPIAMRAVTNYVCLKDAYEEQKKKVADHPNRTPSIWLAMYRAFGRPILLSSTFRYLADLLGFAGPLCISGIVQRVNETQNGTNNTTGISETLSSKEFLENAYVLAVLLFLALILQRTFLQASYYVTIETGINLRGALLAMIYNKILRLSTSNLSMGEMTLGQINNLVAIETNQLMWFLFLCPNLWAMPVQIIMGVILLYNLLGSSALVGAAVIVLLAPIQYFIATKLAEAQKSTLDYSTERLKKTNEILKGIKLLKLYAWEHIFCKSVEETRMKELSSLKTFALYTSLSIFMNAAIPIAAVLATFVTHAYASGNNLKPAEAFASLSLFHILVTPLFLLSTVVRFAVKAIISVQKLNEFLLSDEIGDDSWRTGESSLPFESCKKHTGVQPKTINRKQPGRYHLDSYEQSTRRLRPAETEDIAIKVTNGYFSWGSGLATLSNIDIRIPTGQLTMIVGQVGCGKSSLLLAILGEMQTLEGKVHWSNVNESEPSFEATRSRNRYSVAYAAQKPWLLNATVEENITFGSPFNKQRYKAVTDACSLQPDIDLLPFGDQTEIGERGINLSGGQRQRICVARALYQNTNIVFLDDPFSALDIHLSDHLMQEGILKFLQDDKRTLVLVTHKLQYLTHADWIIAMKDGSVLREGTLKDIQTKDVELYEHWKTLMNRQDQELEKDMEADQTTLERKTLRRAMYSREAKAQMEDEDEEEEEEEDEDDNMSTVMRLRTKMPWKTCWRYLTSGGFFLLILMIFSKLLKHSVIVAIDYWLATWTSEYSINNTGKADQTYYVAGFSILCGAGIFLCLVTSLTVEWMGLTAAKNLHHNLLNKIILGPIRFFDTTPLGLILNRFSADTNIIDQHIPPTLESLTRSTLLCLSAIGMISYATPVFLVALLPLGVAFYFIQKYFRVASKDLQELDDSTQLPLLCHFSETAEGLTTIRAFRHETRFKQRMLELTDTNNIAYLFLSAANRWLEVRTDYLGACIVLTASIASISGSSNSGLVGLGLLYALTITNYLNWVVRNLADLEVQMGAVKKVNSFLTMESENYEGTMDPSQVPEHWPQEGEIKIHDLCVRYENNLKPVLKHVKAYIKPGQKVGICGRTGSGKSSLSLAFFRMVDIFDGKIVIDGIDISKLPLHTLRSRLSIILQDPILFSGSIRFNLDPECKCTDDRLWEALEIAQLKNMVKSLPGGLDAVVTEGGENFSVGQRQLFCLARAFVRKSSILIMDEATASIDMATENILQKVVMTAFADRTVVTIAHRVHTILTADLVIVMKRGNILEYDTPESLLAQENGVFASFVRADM
Assay: thallium-flux fluorescence assay (FLIPR, BTC/AM)
pEC50: −log10 of the molar value.
measured endpoint: pEC50

molecule: CC1=NS(=O)(=O)c2cc(Cl)ccc2N1 [Diazoxide]
target desc: Kir6.1/SUR2B (Homo sapiens, UniProt O60706+Q15842)
pEC50: 5.01
//
molecule: CC(O)(C(=O)Nc1ccc(S(=O)(=O)c2ccccc2)cc1)C(F)(F)F (stereo not shown)
target desc: Kir6.1/SUR2B (Homo sapiens, UniProt O60706+Q15842)
pEC50: 6.82
//
molecule: CCC(C)(C)NC(=NC#N)Nc1cccnc1
target desc: Kir6.1/SUR2B (Homo sapiens, UniProt O60706+Q15842)
pEC50: 7.28

P. CC(=O)N(O)[C@@H]1c2cc(C#N)ccc2OC(C)(C)[C@H]1O
Q. O=C1CCCC2=C1[C@H](c1ccc(F)c(Br)c1)C1=C(CCS1(=O)=O)N2
Sorting by pEC50 in descending order, would P or Q appear first? Kindly state the label of the option you pick. P
(P: 7.12, Q: 6.77)
